Would you mind telling me the reported MIC Mode of each entry?
- Tested on: C. difficile
- procedure.summary: microbe, parasite or virus in culture
- Type: cell-based, Clostridium difficile
Write the value in µg/mL as a bare number.

Reported MIC Mode for C=C1NC(=O)[C@H](Cc2c[nH]c3ccccc23)NC(=O)[C@H](NC(=O)[C@H](CCCCN)NC(=O)[C@@H](N)[C@@H](C)CC)CSC[C@@H](C(=O)N[C@H]2C(=O)N3CCC[C@H]3C(=O)NCC(=O)N[C@H](C(=O)N[C@@H](C)C(=O)N[C@@H](CC(=O)O)C(=O)N/C(=C\C)C(=O)NCC(=O)N[C@@H]3CSC[C@@H]4NC(=O)[C@H](Cc5ccc(O)cc5)NC(=O)[C@@H](CS/C=C\NC4=O)NC(=O)[C@H](CC(N)=O)NC(=O)[C@H](Cc4ccccc4)NC3=O)CS[C@H]2C)NC(=O)[C@H](CC(C)C)NC1=O : what is it?
1

Reported MIC Mode for C=C1NC(=O)[C@H](Cc2c[nH]c3ccccc23)NC(=O)[C@H](NC(=O)[C@H](CCCCN)NC(=O)[C@@H](N)CC(C)C)CSC[C@@H](C(=O)N[C@H]2C(=O)N3CCC[C@H]3C(=O)NCC(=O)N[C@H](C(=O)N[C@@H](C)C(=O)N[C@@H](C)C(=O)N/C(=C\C)C(=O)NCC(=O)N[C@@H]3CSC[C@@H]4NC(=O)[C@H](Cc5ccc(O)cc5)NC(=O)[C@@H](CS/C=C\NC4=O)NC(=O)[C@H](CC(N)=O)NC(=O)[C@H](Cc4ccccc4)NC3=O)CS[C@H]2C)NC(=O)[C@H](CC(C)C)NC1=O : what is it?
0.5

----------
- Tested on: C. difficile
- procedure.summary: microbe, parasite or virus in culture
- Type: cell-based, Clostridium difficile
experimental.endpoint: Minimum Inhibitory Concentration C. difficile ATCC BAA-1874

Reported Minimum Inhibitory Concentration C. difficile ATCC BAA-1874 for C=C1NC(=O)[C@H](Cc2c[nH]c3ccccc23)NC(=O)[C@H](NC(=O)[C@H](CCCCN)NC(=O)[C@@H](N)[C@@H](C)CC)CSC[C@@H](C(=O)N[C@H]2C(=O)N3CCC[C@H]3C(=O)NCC(=O)N[C@H](C(=O)N[C@@H](C)C(=O)N[C@@H](CC(N)=O)C(=O)N/C(=C\C)C(=O)NCC(=O)N[C@@H]3CSC[C@@H]4NC(=O)[C@H](Cc5ccccc5)NC(=O)[C@@H](CS/C=C\NC4=O)NC(=O)[C@H](CC(N)=O)NC(=O)[C@H](Cc4ccccc4)NC3=O)CS[C@H]2C)NC(=O)[C@H](CC(C)C)NC1=O : what is it?
0.5 µg/mL

Reported Minimum Inhibitory Concentration C. difficile ATCC BAA-1874 for C=C1NC(=O)[C@H](Cc2c[nH]c3ccccc23)NC(=O)[C@H](NC(=O)[C@H](CCCCN)NC(=O)[C@@H](N)CC(C)C)CSC[C@@H](C(=O)N[C@H]2C(=O)N3CCC[C@H]3C(=O)NCC(=O)N[C@H](C(=O)N[C@@H](C)C(=O)N[C@@H](CC(=O)O)C(=O)N/C(=C\C)C(=O)NCC(=O)N[C@@H]3CSC[C@@H]4NC(=O)[C@H](Cc5ccc(O)cc5)NC(=O)[C@@H](CS/C=C\NC4=O)NC(=O)[C@H](CC(N)=O)NC(=O)[C@H](Cc4ccccc4)NC3=O)CS[C@H]2C)NC(=O)[C@H](CC(C)C)NC1=O : what is it?
1 µg/mL

Reported Minimum Inhibitory Concentration C. difficile ATCC BAA-1874 for C=C1NC(=O)[C@H](Cc2c[nH]c3ccccc23)NC(=O)[C@H](NC(=O)[C@H](CCCCN)NC(=O)[C@@H](N)[C@@H](C)CC)CSC[C@@H](C(=O)N[C@H]2C(=O)N3CCC[C@H]3C(=O)NCC(=O)N[C@H](C(=O)N[C@@H](C)C(=O)N[C@@H](C)C(=O)N/C(=C\C)C(=O)NCC(=O)N[C@@H]3CSC[C@@H]4NC(=O)[C@H](Cc5ccc(O)cc5)NC(=O)[C@@H](CS/C=C\NC4=O)NC(=O)[C@H](CC(N)=O)NC(=O)[C@H](Cc4ccccc4)NC3=O)CS[C@H]2C)NC(=O)[C@H](CC(C)C)NC1=O : what is it?
0.5 µg/mL

Recorded values, source paper PMC5997364.
